All values here come from patent US8633183B2.

Please go through the items and note down their log10 IC50.
Target system: PI3Kalpha (Homo sapiens (Human), UniProt P42336)
Sequence (P42336 whole entry, looked up): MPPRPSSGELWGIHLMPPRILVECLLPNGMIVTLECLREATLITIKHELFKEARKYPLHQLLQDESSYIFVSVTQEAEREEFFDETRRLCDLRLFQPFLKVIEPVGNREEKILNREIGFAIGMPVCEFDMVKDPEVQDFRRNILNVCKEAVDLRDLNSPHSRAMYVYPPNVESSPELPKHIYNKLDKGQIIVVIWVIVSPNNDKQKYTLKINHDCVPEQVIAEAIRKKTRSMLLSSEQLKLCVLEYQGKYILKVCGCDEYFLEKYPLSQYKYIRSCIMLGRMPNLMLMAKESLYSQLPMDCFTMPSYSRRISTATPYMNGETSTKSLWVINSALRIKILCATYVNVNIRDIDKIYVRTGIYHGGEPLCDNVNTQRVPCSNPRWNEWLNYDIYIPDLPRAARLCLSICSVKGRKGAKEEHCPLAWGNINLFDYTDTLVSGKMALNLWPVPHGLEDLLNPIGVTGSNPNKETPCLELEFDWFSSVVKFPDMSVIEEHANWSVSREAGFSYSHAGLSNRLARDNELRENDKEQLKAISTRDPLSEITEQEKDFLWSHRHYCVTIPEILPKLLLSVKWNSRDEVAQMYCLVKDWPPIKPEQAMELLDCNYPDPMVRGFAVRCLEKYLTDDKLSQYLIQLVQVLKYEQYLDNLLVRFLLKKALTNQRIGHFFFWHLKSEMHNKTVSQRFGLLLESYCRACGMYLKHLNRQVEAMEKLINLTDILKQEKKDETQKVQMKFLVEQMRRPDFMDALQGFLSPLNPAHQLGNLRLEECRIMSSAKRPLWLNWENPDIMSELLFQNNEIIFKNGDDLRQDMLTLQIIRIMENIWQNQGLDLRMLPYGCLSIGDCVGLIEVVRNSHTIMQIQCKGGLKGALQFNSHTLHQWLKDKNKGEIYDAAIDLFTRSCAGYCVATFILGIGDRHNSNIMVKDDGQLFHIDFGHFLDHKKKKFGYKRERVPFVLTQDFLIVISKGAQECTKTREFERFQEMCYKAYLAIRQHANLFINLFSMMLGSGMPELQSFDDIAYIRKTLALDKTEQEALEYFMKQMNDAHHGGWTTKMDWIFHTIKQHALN
Condition parameters: read-out: IC50 PI3K
Record value = log10 of IC50 given in nM.

*Q* Report log10 IC50 for CCc1ncnc(-c2ccc(C(=O)N3CCC[C@H]3CO)c(F)c2)c1C#Cc1ccc(N)nc1 [Example D-135] please.
*A* 2.13

*Q* Given the compound CCc1ncnc(-c2ccc(C(=O)N3CCN(CCCS(C)(=O)=O)CC3)c(F)c2)c1C#Cc1ccc(N)nc1 , what is its reported log10 IC50?
*A* 1.96

*Q* # get_value(readout='log10 IC50', item= CCNc1ccc(C#Cc2c(CC)ncnc2-c2ccc(C(=O)N3CCC4(CC3)CN(C(=O)OC(C)(C)C)C4)c(F)c2)cn1 )
*A* 2.75

*Q* Recorded log10 IC50 of CCc1ncnc(-c2ccc(C(=O)N3CCN(CC4CCCCC4)CC3)c(F)c2)c1C#Cc1ccc(N)nc1C , please.
*A* 3.10

*Q* Sample CCc1ncnc(-c2ccc(C(=O)N3CCC(O)CC3)c(C)c2)c1C#Cc1ccc(N)nc1 — what was its log10 IC50?
*A* 1.66

*Q* What value of measured log10 IC50 is listed for CCc1ncnc(-c2cc(F)c(C(=O)N3CCC4(CC3)CC(=O)CO4)c(Cl)c2)c1C#Cc1ccc(N)nc1 ?
*A* 1.84

*Q* # input compound: CCc1ncnc(-c2ccc(C(=O)N(C)OC)c(C)c2)c1C#Cc1ccc(N)nc1 ; wanted: its log10 IC50
*A* 1.86

*Q* Fill in: log10 IC50 of CCc1ncnc(-c2ccc(C(=O)N(C)CCCOC)c(F)c2)c1C#Cc1ccc(N)nc1 is ___
*A* 1.89

*Q* I'd like to know its log10 IC50. The compound in question is CCc1ncnc(-c2ccc(C(=O)N3CCN4CCCC[C@H]4C3)c(Cl)c2)c1C#Cc1ccc(N)nc1
*A* 2.10

*Q* Could you tell me which log10 IC50 is on file for CCc1ncnc(-c2ccc(C(=O)N3CCCO3)c(F)c2)c1C#Cc1ccc(N)nc1 ?
*A* 1.90

*Q* # query: log10 IC50 of entry CCc1ncnc(-c2ccc(C(=O)NC[C@H]3CCCN3CC)c(F)c2)c1C#Cc1ccc(N)nc1
*A* 2.75

*Q* Query (compound): CCc1ncnc(-c2ccc(C(=O)N3CCC(N4CCN(C)CC4)CC3)c(F)c2)c1C#Cc1ccc(N)nc1 ; field requested: log10 IC50
*A* 2.31

*Q* Fill in: log10 IC50 of CCc1ncnc(-c2ccc(C(=O)N3CCOCC3)c(F)c2)c1C#Cc1ccc(N)nc1 is ___
*A* 1.74

*Q* Would you mind telling me what log10 IC50 value was observed for CCc1ncnc(-c2cc(F)c(C(=O)N3CCN(C4CCC4)CC3)c(Cl)c2)c1C#Cc1ccc(N)nc1 ?
*A* 2.06

*Q* Which value of log10 IC50 has been reported for CCc1ncnc(-c2ccc(C(=O)N3CCN(CC(F)F)CC3)c(F)c2)c1C#Cc1ccc(N)nc1C in the records?
*A* 2.21

*Q* Give the measured log10 IC50 of CCc1ncnc(-c2ccc(C(=O)NCCN3CCNCC3)c(F)c2)c1C#Cc1ccc(N)nc1 .
*A* 2.20

*Q* For the compound CCc1ncnc(-c2ccc(C(F)(F)F)nc2)c1C#Cc1ccc(N)nc1 , what log10 IC50 is on record?
*A* 1.76

*Q* Would you mind telling me what log10 IC50 value was observed for CCc1ncnc(-c2ccc(C(=O)N3CCC(O)(CC)CC3)c(F)c2)c1C#Cc1ccc(N)nc1 ?
*A* 2.43

*Q* If you can, please state the reported log10 IC50 value of CCc1ncnc(-c2ccc(C(=O)N3CCN(CCOC)CC3)c(F)c2)c1C#Cc1ccc(N)nc1 .
*A* 2.16

*Q* Would you kindly share the measured log10 IC50 for CCc1ncnc(-c2ccc(C(=O)N(C)OC)c(OC)c2)c1C#Cc1ccc(N)nc1 ?
*A* 1.84

*Q* Look up log10 IC50 for this compound: CCc1ncnc(-c2ccc(C(=O)N3CCN(CC(F)(F)F)CC3)c(OC)c2)c1C#Cc1ccc(N)nc1
*A* 1.91

*Q* // query log10 IC50 value for entry CCOC(=O)N1CCN(C(=O)c2ccc(-c3ncnc(CC)c3C#Cc3ccc(N)nc3)cc2C)CC1
*A* 1.80

*Q* State the recorded log10 IC50 for this entry: CCc1ncnc(-c2ccc(C(=O)N3CCC4(CCN(C(=O)OC(C)(C)C)CC4)C3)c(F)c2)c1C#Cc1ccc(N)nc1
*A* 3.13

*Q* Param item = CCc1ncnc(-c2cc(F)c(C(=O)N3CCC(C(C)O)CC3)c(F)c2)c1C#Cc1ccc(NC)nc1 (stereo not drawn) ; retrieve measured log10 IC50.
*A* 2.67

*Q* So what's the measured log10 IC50 for this one? CCc1ncnc(-c2cc(F)c(C(=O)N3CCN(CC(C)O)CC3)c(Cl)c2)c1C#Cc1ccc(N)nc1 (stereo not drawn)
*A* 2.38

*Q* GET /values?readout=log10 IC50&item= CCc1ncnc(-c2ccc(C(=O)NCCN3CCOCC3)c(F)c2)c1C#Cc1ccc(N)nc1
*A* 1.64

*Q* Would you mind telling me what log10 IC50 value was observed for CCc1ncnc(-c2cc(F)c(C(=O)N3CCN(CCN)CC3)c(Cl)c2)c1C#Cc1ccc(N)nc1 ?
*A* 2.72

*Q* // returns reported log10 IC50 for input CCc1ncnc(-c2ccc(C(=O)N3CCC(N(CC)CC)C3)c(F)c2)c1C#Cc1ccc(N)nc1 (stereo not drawn)
*A* 2.58

*Q* Tell me the measured log10 IC50 of CCc1ncnc(-c2ccc(C(=O)N3CC(C)NC(C)C3)c(F)c2)c1C#Cc1ccc(N)nc1 (stereo not drawn) , please.
*A* 2.26

*Q* Fill in the blank: the reported log10 IC50 of CCc1ncnc(-c2ccc(C(=O)N3CCN(C)CC3)c(C(F)(F)F)c2)c1C#Cc1ccc(N)nc1 is ____.
*A* 2.24
